test system: P388; experiment: Antitumor activity against mouse P388 cells allografted in DBA/2 mouse assessed as tumor growth inhibition at 20 mg/kg, ip qd relative to control; format: functional; conditions: route intraperitoneal
property: T/C
Field format: numeric only.

In the examples that follow, each entry is paired with its recorded T/C.
N#CCOC(=O)[C@H](Cc1ccccc1)NC(=O)OCc1ccccc1 | 82
Sc1ncnc2nc[nH]c12 [MERCAPTOPURINE ANHYDROUS] | 148
O=C(N[C@H](Cc1ccccc1)C(=O)OC(Br)CBr)OCc1ccccc1 (stereo partly specified) | 92
C=COC(=O)[C@H](Cc1ccccc1)NC(=O)OCc1ccccc1 | 100
O=C(N[C@@H](Cc1ccccc1)C(=O)OC(Br)CBr)OCc1ccccc1 (stereo partly specified) | 83

Note: attention shifts to another entry.
Record `Cc1ccc(S(=O)(=O)N[C@@H](Cc2ccccc2)C(=O)OCC#N)cc1` / P388, T/C recorded as 112

====

test: Acute toxicity in CF1 mouse; assay type: organism-based; details: in vivo
Measured LD50 by item
Give your result in µmol/kg as a bare value.

Consider the worked cases shown below.
O=C(N[C@@H](Cc1ccccc1)C(=O)OC(Br)CBr)OCc1ccccc1 (stereo partly drawn) | 150
N[C@H](CO)Cc1ccccc1 [L-PHENYLALANINOL] | 500
C=COC(=O)C(Cc1ccccc1)NC(=O)OCc1ccccc1 (racemic) | 1540
N#CCOC(=O)[C@@H](Cc1ccccc1)NC(=O)OCc1ccccc1 | 80

According to the records, this molecule `N#CCOC(=O)[C@H](Cc1ccccc1)NC(=O)OCc1ccccc1` displays LD50 of 440

Lookup result for `O=C(N[C@@H](Cc1ccccc1)C(=O)O)OCc1ccccc1` ; measured LD50: 840

response.value for `CCOC(=O)[C@H](Cc1ccccc1)NC(=O)OCc1ccccc1` (field: LD50) = 1530

Entry `C=COC(=O)[C@@H](Cc1ccccc1)NC(=O)OCc1ccccc1` — recorded LD50 = 1540

====

system: Ehrlich; test: Antitumor activity against mouse EAC allografted in CF1 mouse assessed as tumor volume at 33 mg/kg/day measured on day 7; assay type: functional
Collected log10 of Activity values appear next to each entry.
// units: mL (pre-log); metric: Activity; scale: log10

Short answer for `Cc1ccc(S(=O)(=O)N[C@@H](Cc2ccccc2)C(=O)O)cc1` : log10 of Activity was -0.30

For this molecule ( `O=Cc1ccccc1` ), measured log10 of Activity is -0.10

According to the records, this molecule `N#CCOC(=O)[C@H](Cc1ccccc1)NC(=O)c1ccccc1` displays log10 of Activity of 0.26

The recorded log10 of Activity for entry `N[C@@H](Cc1ccc(N(CCCl)CCCl)cc1)C(=O)O` equals -1.00

Documented log10 of Activity of N#CCOC(=O)C(Cc1ccccc1)NC(=O)OCc1ccccc1 (racemic) : -0.40

Lookup result for `C#CCN[C@@H](Cc1ccccc1)C(=O)OCC` ; measured log10 of Activity: 0.57

Record `CC(=O)N[C@@H](Cc1ccccc1)C(=O)OCC#N` , field log10 of Activity: 0.59

So for `N#CCOC(=O)[C@H](Cc1ccccc1)NC(=O)OCc1ccccc1` , the logged log10 of Activity turned out to be -0.70

log10 of Activity reading for `O=C(N[C@@H](Cc1ccccc1)C(=O)O)OCc1ccccc1` : -0.22

log10 of Activity for `O=C(N[C@H](CO)Cc1ccccc1)OCc1ccccc1` is 0.11

Record `C=COC(=O)[C@@H](N)Cc1ccccc1.Cl` . Reported log10 of Activity: 0.34
